assayed target: CFTR in F508del/MF-HBE cells (Homo sapiens, UniProt P13569, DEL508-508)
Construct: human bronchial epithelial (HBE) cells derived from CF subjects heterozygous for F508del and a minimal function CFTR mutation; endogenous in cells
Sequence (P13569 with tags, fused parts or gaps DEL508-508): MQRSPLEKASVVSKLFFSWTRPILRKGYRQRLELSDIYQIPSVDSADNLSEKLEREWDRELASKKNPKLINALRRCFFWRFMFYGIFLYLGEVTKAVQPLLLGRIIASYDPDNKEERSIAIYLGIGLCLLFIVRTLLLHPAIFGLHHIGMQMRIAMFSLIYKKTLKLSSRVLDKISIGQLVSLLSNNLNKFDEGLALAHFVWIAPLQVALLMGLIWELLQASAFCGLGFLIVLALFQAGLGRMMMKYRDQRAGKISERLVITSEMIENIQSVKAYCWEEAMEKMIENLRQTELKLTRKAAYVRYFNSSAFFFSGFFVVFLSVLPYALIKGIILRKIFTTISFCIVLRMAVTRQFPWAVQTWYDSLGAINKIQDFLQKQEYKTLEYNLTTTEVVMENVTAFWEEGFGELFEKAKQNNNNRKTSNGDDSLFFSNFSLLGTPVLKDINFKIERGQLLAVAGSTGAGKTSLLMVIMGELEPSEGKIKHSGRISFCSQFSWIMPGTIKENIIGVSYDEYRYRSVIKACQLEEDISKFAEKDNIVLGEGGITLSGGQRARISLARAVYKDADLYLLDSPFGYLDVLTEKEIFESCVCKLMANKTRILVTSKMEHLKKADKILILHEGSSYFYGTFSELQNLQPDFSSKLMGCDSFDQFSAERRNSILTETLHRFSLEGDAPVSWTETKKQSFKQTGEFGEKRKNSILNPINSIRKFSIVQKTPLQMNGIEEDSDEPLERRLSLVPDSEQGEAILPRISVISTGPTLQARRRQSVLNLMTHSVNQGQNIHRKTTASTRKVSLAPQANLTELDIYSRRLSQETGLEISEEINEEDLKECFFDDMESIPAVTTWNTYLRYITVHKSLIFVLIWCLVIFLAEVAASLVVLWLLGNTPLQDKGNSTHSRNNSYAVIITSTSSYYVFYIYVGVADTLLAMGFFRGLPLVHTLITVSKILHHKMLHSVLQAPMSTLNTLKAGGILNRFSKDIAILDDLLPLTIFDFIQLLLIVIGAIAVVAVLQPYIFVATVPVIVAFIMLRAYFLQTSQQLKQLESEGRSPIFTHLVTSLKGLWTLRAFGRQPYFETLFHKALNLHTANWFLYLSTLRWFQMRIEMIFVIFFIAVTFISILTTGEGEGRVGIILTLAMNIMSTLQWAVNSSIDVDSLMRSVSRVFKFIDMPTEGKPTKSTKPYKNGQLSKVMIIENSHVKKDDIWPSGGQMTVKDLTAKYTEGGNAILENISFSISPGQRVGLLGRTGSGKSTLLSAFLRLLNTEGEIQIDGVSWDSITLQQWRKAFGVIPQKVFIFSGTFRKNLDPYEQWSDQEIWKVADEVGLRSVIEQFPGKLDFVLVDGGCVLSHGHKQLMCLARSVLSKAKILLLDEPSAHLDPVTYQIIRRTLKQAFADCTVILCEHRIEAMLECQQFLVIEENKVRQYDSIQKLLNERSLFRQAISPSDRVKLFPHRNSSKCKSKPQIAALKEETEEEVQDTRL
protocol: Ussing chamber assay of CFTR-mediated short-circuit currents (identification of potentiator compounds)
condition: potentiator incubated 18-24 hours at 37° C. in combination with 10 μM corrector, in the presence of 20% human serum, CFTR-mediated ISC
Here the recorded EC50 is given for each entry.
property measured: EC50

compound=Nc1cc(C(F)(F)F)c2nc1-c1nnc(o1)[C@@](O)(C(F)(F)F)CCCCCN(C13CC(F)(C1)C3)C2=O assayed_target="CFTR in F508del/MF-HBE cells (Homo sapiens, UniProt P13569, DEL508-508)" recorded_value="< 0.5 µM"
compound=Nc1cc(C(F)(F)F)c2nc1-c1nnc(o1)[C@@](O)(C(F)(F)F)CCC(=O)CCCC2(F)F assayed_target="CFTR in F508del/MF-HBE cells (Homo sapiens, UniProt P13569, DEL508-508)" recorded_value="< 0.5 µM"
compound="Nc1cc(C(F)(F)F)c2nc1-c1nnc(o1)C(O)(C(F)(F)F)CCCCCN(C1CCC1)C2=O (single isomer, unassigned)" assayed_target="CFTR in F508del/MF-HBE cells (Homo sapiens, UniProt P13569, DEL508-508)" recorded_value="< 0.5 µM"
compound=CC(C)Oc1ccc(CN2CCCCC[C@](O)(C(F)(F)F)C3=NN=C(O3)c3nc(c(C(F)(F)F)cc3N)C2=O)cc1 assayed_target="CFTR in F508del/MF-HBE cells (Homo sapiens, UniProt P13569, DEL508-508)" recorded_value="< 0.5 µM"
compound="Nc1cc(C(F)(F)F)c2nc1-c1nnc(o1)C(O)(C(F)(F)F)c1cc(ccc1F)C=CCCC2=O (single isomer, unassigned) [Compound 59]" assayed_target="CFTR in F508del/MF-HBE cells (Homo sapiens, UniProt P13569, DEL508-508)" recorded_value="> 1 µM"
compound=Nc1cc(C(F)(F)F)c2nc1-c1nnc(o1)[C@@](O)(C(F)(F)F)CCCCCN(Cc1cccc(C34CC(C3)C4)c1)C2=O assayed_target="CFTR in F508del/MF-HBE cells (Homo sapiens, UniProt P13569, DEL508-508)" recorded_value="< 0.5 µM"
compound=Nc1cc(C(F)(F)F)c2nc1-c1nnc(o1)[C@@](O)(C(F)(F)F)CCCCCN(Cc1ccnc(OC(F)F)c1)C2=O assayed_target="CFTR in F508del/MF-HBE cells (Homo sapiens, UniProt P13569, DEL508-508)" recorded_value="> 1 µM"
compound="Nc1cc(C(F)(F)F)c2nc1-c1nnc(o1)C(O)(C(F)(F)F)CCCCCc1ccccc1-2 (single isomer, unassigned) [Compound 5]" assayed_target="CFTR in F508del/MF-HBE cells (Homo sapiens, UniProt P13569, DEL508-508)" recorded_value="> 1 µM"
compound=Cc1cnc(CN2CCCCC[C@](O)(C(F)(F)F)C3=NN=C(O3)c3nc(c(C(F)(F)F)cc3N)C2=O)cn1 assayed_target="CFTR in F508del/MF-HBE cells (Homo sapiens, UniProt P13569, DEL508-508)" recorded_value="> 1 µM"
compound="CC1CCCCCCC(O)(C(F)(F)F)C2=NN=C(O2)c2nc1c(C(F)(F)F)cc2N (single isomer, unassigned) [Compound 17]" assayed_target="CFTR in F508del/MF-HBE cells (Homo sapiens, UniProt P13569, DEL508-508)" recorded_value="< 0.5 µM"
compound="Nc1cc(C(F)(F)F)c2nc1-c1nnc(o1)C(O)(C(F)(F)F)CCCCCCC1=NN=C2O1 (single isomer, unassigned) [Compound 32]" assayed_target="CFTR in F508del/MF-HBE cells (Homo sapiens, UniProt P13569, DEL508-508)" recorded_value="< 0.5 µM"
compound=Nc1cc(C(F)(F)F)c2nc1-c1nnc(o1)[C@@](O)(C(F)(F)F)CCCCCN(CC1CC(F)(F)C1)C2=O assayed_target="CFTR in F508del/MF-HBE cells (Homo sapiens, UniProt P13569, DEL508-508)" recorded_value="< 0.5 µM"
compound="Nc1cc(C(F)(F)F)c2nc1-c1nnc(o1)C(O)(C(F)(F)F)CCCCCCC2O (single isomer, unassigned) [Compound 9]" assayed_target="CFTR in F508del/MF-HBE cells (Homo sapiens, UniProt P13569, DEL508-508)" recorded_value="> 1 µM"
